- target_or_system: Induced myeloid leukemia cell differentiation protein Mcl-1 (Homo sapiens) (UniProt Q07820)
- Sequence (Q07820 whole entry, looked up): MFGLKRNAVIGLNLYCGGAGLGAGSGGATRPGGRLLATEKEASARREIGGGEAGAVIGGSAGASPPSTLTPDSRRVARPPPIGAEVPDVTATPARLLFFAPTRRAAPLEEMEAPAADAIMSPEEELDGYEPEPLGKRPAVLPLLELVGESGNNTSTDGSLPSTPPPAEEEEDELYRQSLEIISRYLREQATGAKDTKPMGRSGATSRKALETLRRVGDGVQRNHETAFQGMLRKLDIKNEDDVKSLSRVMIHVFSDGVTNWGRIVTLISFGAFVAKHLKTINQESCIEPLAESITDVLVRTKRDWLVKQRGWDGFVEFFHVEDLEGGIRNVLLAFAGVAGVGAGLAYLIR
- assay_details: Mcl-1/Noxa binding inhibitor potency, dose response, biochemical, TR-FRET (AID 1417)
- details: Mcl-1/Noxa peptide interaction, cell-free TR-FRET (terbium/rhodamine), 2 h; measured here: absolute IC50
Under this convention, rule met denotes IC50 strictly below 8000 nM and rule not met denotes IC50 at or above 8000 nM.

Look over these answered cases.
O=C(COC(=O)c1cc(-c2ccco2)nc2ccccc12)NCc1ccc2c(c1)OCO2 ... rule not met
CCC1CCCCN1S(=O)(=O)c1ccc(S(=O)(=O)N(Cc2ccccn2)CC2CCCO2)cc1 (stereo not given) ... rule not met
CN(C)c1ccc(Nc2c3c4c(cccc4n(C)c2=O)C(=O)c2ccccc2-3)cc1 ... rule met
COc1cc(/C=C/c2nc3ccccc3c(=O)n2-c2cccc(O)c2)ccc1O ... rule not met
Nc1cc(C(=O)O)c(N)c2c1C(=O)c1ccccc1C2=O ... rule met

Report whether reported IC50 is lower than 8000 nM (strictly) for NC(=S)n1[nH]c(-c2ccc([N+](=O)[O-])cc2)c(N=Nc2cccc([N+](=O)[O-])c2)c1=O
rule met

// query: CC(=O)NC1=C(NC2CCS(=O)(=O)C2)C(=O)c2ccccc2C1=O (stereo not given)
rule met

// query: Cc1ccc(-c2c3c([nH]c(=S)c2C#N)CCCC3)o1
rule met

// query: Cc1sc(NC(=O)c2sc3nc4c(C)cccc4cc3c2N)c(C#N)c1C
rule met

* * *

The molecules listed here are annotated with their IC50.
- target_or_system: Induced myeloid leukemia cell differentiation protein Mcl-1 (Homo sapiens)
- assay_details: Mcl-1/Noxa binding inhibitor potency, dose response, biochemical, TR-FRET (AID 1417)
- details: Mcl-1/Noxa peptide interaction, cell-free TR-FRET (terbium/rhodamine), 2 h; measured here: absolute IC50
// return numeric value only (unit: µM, not printed)

O=S(=O)(Cc1cc(Cl)nc(-c2ccncc2)n1)c1ccccc1 ... 24.8

IC50 of Cc1ccc(-n2cccc2/C=C2\C(=N)N3N=C(c4ccco4)SC3=NC2=O)cc1 on Induced myeloid leukemia cell differentiation protein Mcl-1 (Homo sapiens)?
1.53

// query: COc1ccc(/C=C2\C(=O)N(c3c(Cl)cc(Cl)cc3Cl)N=C2NC(=O)c2cccc([N+](=O)[O-])c2)cc1
2.96

// query: COc1cccc(C(=O)Nc2ccc3nc(N4CCN(c5ncccn5)CC4)cc(C)c3c2)c1OC
8.07

// query: CCNc1ccc(Br)cc(C(=O)/C=C/c2ccc(Cl)cc2Cl)c1=O
4.19

// query: COc1cc(/C=C2/SC(=S)NC2=O)ccc1OS(=O)(=O)c1ccc(C)cc1
3.26

// query: [O-][n+]1onc2c1CCC(=N/O)/C2=N\Nc1ccccc1
1.06

// query: CN(C)S(=O)(=O)c1cccc(-c2nn(-c3ccccc3)cc2/C=C2\SC(=S)NC2=O)c1
0.48

// query: Cc1ccc(NC2=C(NC(=O)c3ccccc3)C(=O)c3ccccc3C2=O)cc1Cl
3.9

// query: Cc1cc(/C=N/n2c(COc3ccccc3C)nc3ccccc3c2=O)c(O)c([N+](=O)[O-])c1
4.86

// query: O=C1C(=Cc2cccn2-c2ccccc2)C(=O)c2ccccc21
5.19

// query: O=C1NC(=S)N(c2ccccc2F)C(=O)/C1=C\c1cccs1
3.77

// query: COc1ccc(C2=NN(c3nc(-c4ccccc4)c(CC(=O)O)s3)C(c3ccco3)C2)cc1 (configuration not stated)
11.9

// query: Cc1ccc(/C=C2/SC(=O)NC2=S)o1
4.11

// query: Cc1cccc(/C=C/C(=O)c2ccc(NC3=NCCCS3)cc2)c1
4.9

// query: CN(c1ccccc1)c1ccc(/C=C(\CCC(=O)O)c2nc3ccccc3s2)cc1[N+](=O)[O-]
1.06

// query: CN1CCN(CCCN2c3ccccc3Sc3ccc(Cl)cc32)CC1
4.06

// query: Cn1c(SCC(=O)Nc2ccc3nc(SCC(=O)N4CCCC4)sc3c2)nnc1-c1ccccc1
2.24

// query: COc1cc(/C=C2\SC(=S)NC2=O)ccc1OS(=O)(=O)c1ccccc1
1.97

// query: Cc1cc(C(=O)OCC(=O)Nc2sc3c(c2C#N)CCC(C)C3)c2ccccc2n1 (configuration not stated)
4.27

// query: C/C(=C\c1ccco1)C1Nc2cccc3cccc(c23)N1
3.68

// query: COc1ccc(Cl)c(N2CCN(CCCNC(=O)Nc3ccc(C)cc3)CC2)c1
6.02
